tested on: CYP2B6; experiment: CYP2B6 mRNA induction in cultured human hepatocytes; assay type: cell-based; conditions: human, cultured human hepatocytes, CYP2B6 mRNA, lot AIH; read-out: EC50
MEASURE: EC50
Returns: string containing the numeric result and its unit.

*Q* Reported EC50 for CYP2B6, given Cc1ccc(C(=O)Nc2ccc(CN3CCN(C)CC3)c(C(F)(F)F)c2)cc1C#Cc1cnc2[nH]ncc2c1 [olverembatinib, Olverembatinib] ?
*A* 828 nM

---

experiment: Phase 1 dose escalation study (renal clearance); conditions: human, in vivo; 12 Chinese patients, 50 mg oral on Day 1
MEASURE: CL renal
Don't forget the unit after the number, please.

*Q* Dear colleague, I am looking for the recorded CL renal of the following compound: `Cc1ccc(C(=O)Nc2ccc(CN3CCN(C)CC3)c(C(F)(F)F)c2)cc1C#Cc1cnc2[nH]ncc2c1`
*A* 2.2 mL/min
